Target: Human H3 (Homo sapiens, UniProt Q9Y5N1)
Sequence (Q9Y5N1 whole entry): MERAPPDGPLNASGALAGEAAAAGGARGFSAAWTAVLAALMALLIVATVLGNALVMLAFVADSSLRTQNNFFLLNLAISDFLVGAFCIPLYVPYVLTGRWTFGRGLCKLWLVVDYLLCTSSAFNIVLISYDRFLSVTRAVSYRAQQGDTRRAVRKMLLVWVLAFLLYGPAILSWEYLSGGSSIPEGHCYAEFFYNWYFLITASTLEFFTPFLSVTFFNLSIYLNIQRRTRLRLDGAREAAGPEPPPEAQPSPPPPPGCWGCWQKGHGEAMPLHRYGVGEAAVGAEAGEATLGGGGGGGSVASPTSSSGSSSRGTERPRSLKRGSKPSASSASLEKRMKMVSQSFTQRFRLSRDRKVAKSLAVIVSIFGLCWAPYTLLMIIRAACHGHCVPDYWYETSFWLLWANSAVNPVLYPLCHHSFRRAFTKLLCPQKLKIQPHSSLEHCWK
Experiment: Functional assay II, human H3 GTPγS
Details: read-out: hH3-GTPgS) [Ki]
QUANTITY: Ki (nM)
Give your result in nM as a bare value.

Sample answers from the record:
| MOLECULE | UNIT_TAG | Ki |
| --- | --- | --- |
| CC(C)N1CCC(c2ccc(-c3ccc(C(=O)N4CCCC4)cc3)cn2)CC1.Cl.Cl [Example 11] | nM | 26 |
| CC(C)N1CCN(Cc2ccc(-c3ccc(C(=O)N(C)C)cc3)cn2)CC1.Cl.Cl [Example 42] | nM | 17 |

# context switch: different molecule, same Ki
Need Ki, item Cc1cc(-c2ccc(CC3CCN(C4CCC4)CC3)nc2)ccn1.Cl.Cl [Example 29]
8.4
